Target: DRB1*1201 (Homo sapiens, UniProt P01903+P01911, A100R/A169T/D57E/D86V/F55L/H45Y/K41T/L162R/M171V/P40S/Q125H/Q178H/Q39Y/Q99D/R42G/S66L/T262R/V114A/V67L/W38E/Y59H/Y61H/Y89S)
Test: biochemical
Format: binding
No end group written: not given here.
Readout: pIC50
Numbers only, as −log10 of the molar value.

# count of solved cases: 2
{"columns": ["Sequence data", "Value observed"],
 "data": [
  ["WQLIRLENAILFTAR [Peptide 90.0211]", 7.00],
  ["DFEVFFQRLGIASGR [Peptide 68.0114]", 5.70]
]}

For each listed entry, give its pIC50.
1. LKSFLKGTPKKNCLV [Peptide 89.0035]
2. RFHNIMGRWTGRCSE [Peptide 1543.60]
3. EVFFQRLGIASGRAR [Peptide 68.0115]

1. 5.49
2. 4.74
3. 5.53

For each listed entry, give its pIC50.
1. NSRLLQERGVAYINA [Peptide 68.0176]
2. VDFIDTQLSICEQAE [Peptide 89.0078]

[6.21, 5.70]

For each listed entry, give its pIC50.
1. IIHLKGDANILKCLR [Peptide 90.0197]
2. PHPLYNMSLLKHQSL [Peptide 68.0007]
3. LTELYFEKGEYFVEM [Peptide 68.0153]
4. DRGVLILLLIRFKCG [Peptide 89.0099]

1: 5.30; 2: 6.07; 3: 4.90; 4: 6.15

###

Molecular target: DRB1*1101 (Homo sapiens, UniProt P01903+P01911, A100R/A169T/A87E/I96F/K41T/L162R/M171V/P40S/Q125H/Q178H/Q39Y/Q99D/R42S/S66Y/T262R/V115G/W38E)
Sequence (P01903 26-254 limits assumed, other chains not shown): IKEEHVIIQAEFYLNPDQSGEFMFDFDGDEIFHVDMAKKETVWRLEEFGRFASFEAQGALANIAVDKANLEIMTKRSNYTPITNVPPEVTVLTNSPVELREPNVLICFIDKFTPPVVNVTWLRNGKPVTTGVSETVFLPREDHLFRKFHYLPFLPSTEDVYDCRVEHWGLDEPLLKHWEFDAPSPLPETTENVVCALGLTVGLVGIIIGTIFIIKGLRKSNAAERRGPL
Assay: biochemical
Settings: […]
pIC50: −log10 of the molar value. No end group written: not given here.
Readout: pIC50

{"columns": ["Sequence data", "Value observed"],
 "data": [
  ["QKGRGYRGQHQAHSLERVCH [Peptide F025.05]", "< 4.70"],
  ["SLSLGFLFLLFFWLD [Peptide 68.0022]", "< 4.70"]
]}

response.value for IIHLKGDKNSLKCLR [90,0218] (field: pIC50) = < 4.70

###

Molecular target: A*2601 (Homo sapiens, UniProt P04439, A114D/A173T/A270S/D101N/D185E/E277Q/E87N/F33Y/G231S/I121R/I218V/K168Q/L180W/L300P/L318F/P208A/P217A/Q86R/Q94H/R138Q/S129P/T187R/T323A/T345S/V100A/V358M)
Experiment: biochemical
Format: binding
No end group written: not given here.
Can you tell me IC50 for the items I'm about to list?
Numbers only, in µM.

{"columns": ["Sequence data", "Readout", "Value observed"],
 "data": [
  ["LTSALEIPY [Peptide 1549.40]", "IC50", 0.358]
]}

For each listed entry, give its IC50.
1. GTDQATPGPAY [Peptide 9012.0160]
2. VSDFRWYRY [Peptide 1549.43]
3. LTQRNPQLCY [Peptide 9012.0151]
4. EVDYVGLYY [Peptide 1580.33]

3.85
3.07
0.021
0.161

###

Can you tell me pIC50 for the items I'm about to list?
Target: DRB1*1302 (Homo sapiens, UniProt P01903+P01911, A100E/A169T/K41T/L162R/M171V/P40S/Q125H/Q178H/Q39Y/Q99D/R42S/S66N/T262R/V115G/W38E/Y61H)
Sequence (P01903 26-254 limits assumed, other chains not shown): as the sequence (P01903 26-254 limits assumed, other chains not shown) above
Assay: biochemical
Format: binding
pIC50: −log10 of the molar value.

{"columns": ["Compound", "pIC50"],
 "data": [
  ["CC[C@H](C)[C@H](NC(=O)[C@@H](NC(=O)[C@@H]1CCCN1C(=O)CNC(=O)[C@@H](NC(=O)[C@H](CC(C)C)NC(=O)[C@H](CCC(=O)O)NC(=O)[C@H](C)NC(=O)[C@@H](N)Cc1ccccc1)C(C)C)C(C)C)C(=O)N1CCC[C@H]1C(=O)N[C@@H](CCC(N)=O)C(=O)N[C@@H](CC(=O)O)C(=O)N[C@@H](Cc1c[nH]c2ccccc12)C(=O)N[C@@H](CO)C(=O)N[C@H](C(=O)O)[C@@H](C)O [Peptide 68.0056]", "< 4.70"],
  ["CC[C@H](C)[C@H](NC(=O)[C@@H](NC(=O)[C@@H]1CCCN1C(=O)[C@@H](NC(=O)[C@@H](NC(=O)[C@H](CC(N)=O)NC(=O)CNC(=O)[C@H](CO)NC(=O)[C@H](CS)NC(=O)[C@@H](NC(=O)[C@H](CCCCN)NC(=O)[C@@H](N)CCCNC(=N)N)C(C)C)[C@@H](C)O)[C@@H](C)O)[C@@H](C)CC)C(=O)N[C@@H](Cc1c[nH]cn1)C(=O)N[C@@H](CC(C)C)C(=O)N[C@@H](CCCCN)C(=O)O [Peptide 1601.43]", 7.96],
  ["CSCC[C@H](NC(=O)[C@@H](NC(=O)[C@H](CCCCN)NC(=O)[C@@H](NC(=O)[C@H](C)NC(=O)[C@H](CC(=O)O)NC(=O)[C@@H](N)[C@@H](C)O)C(C)C)C(C)C)C(=O)N[C@@H](CC(=O)O)C(=O)N[C@@H](CC(C)C)C(=O)N1CCC[C@H]1C(=O)N[C@H](C(=O)N[C@@H](CCC(N)=O)C(=O)N[C@@H](CCC(=O)O)C(=O)N1CCC[C@H]1C(=O)N[C@@H](C)C(=O)O)[C@@H](C)O [Peptide 68.0074]", "< 4.70"],
  ["CC(C)C[C@H](NC(=O)[C@H](CCC(N)=O)NC(=O)[C@H](C)NC(=O)[C@H](CC(N)=O)NC(=O)[C@H](CCCCN)NC(=O)[C@@H](NC(=O)[C@H](CCCCN)NC(=O)[C@H](CC(N)=O)NC(=O)CN)C(C)C)C(=O)N[C@@H](C)C(=O)NCC(=O)N[C@@H](C)C(=O)N[C@@H](CCCCN)C(=O)NCC(=O)N[C@H](C(=O)O)C(C)C [Peptide 68.0097]", "< 4.70"]
]}

// moving on: another record for pIC50
response.value for CC(C)C[C@H](NC(=O)CNC(=O)[C@H](CC(N)=O)NC(=O)[C@H](Cc1ccc(O)cc1)NC(=O)[C@@H](NC(=O)[C@H](CC(=O)O)NC(=O)[C@@H](N)CC(C)C)C(C)C)C(=O)N[C@@H](CC(C)C)C(=O)N1CCC[C@H]1C(=O)N1CCC[C@H]1C(=O)N[C@@H](Cc1ccc(O)cc1)C(=O)N[C@@H](C)C(=O)N[C@@H](CO)C(=O)N[C@@H](CS)C(=O)N[C@@H](Cc1c[nH]cn1)C(=O)O [Peptide 68.0053] (field: pIC50) = < 4.70

###

Molecular target: A*6801 (Homo sapiens, UniProt P04439, A269V/D185E/E176V/E277Q/E87N/F33Y/G231S/I121M/I166T/I218V/L180W/L300P/L318F/N151K/P208A/P217A/Q86R/R169H/T345S)
Experiment: biochemical
Type: binding
No end group written: not given here.
Can you tell me IC50 for the items I'm about to list?
Numbers only, in nM.

For each listed entry, give its IC50.
1. RQMNMSQWIK [Peptide 1587.54]
2. RLECAIYYK [Peptide 1589.01]
3. LTYDSEWQR [Peptide 1589.04]
4. VVQQLLMGA [Peptide 78.0338]
5. TLDVYMIMVK [Peptide 9012.0258]
6. YVMAGVGSPK [Peptide 9012.0253]
7. FVVYRDSIPK [Peptide 88.0026]

[3110, 7020, 14, 1440, 2030, 18, 10]

###

Can you tell me IC50 for the items I'm about to list?
Biological target: B*3502 (Homo sapiens, UniProt P01889, A329T/A93T/A95T/C349S/D138N/D201E/D98Y/E176V/E187L/E204Q/E69T/I218V/K202T/L119I/L133F/Q94N/R155S/R180L/S121R/S35A/S48A/T118I/V127L/V306I/V36M/Y91F)
Assay: biochemical
Assay type: binding

{"columns": ["Chemical smiles", "IC50"],
 "data": [
  ["CC(C)C[C@H](N)C(=O)N1CCC[C@H]1C(=O)N[C@@H](Cc1ccccc1)C(=O)N[C@@H](CC(=O)O)C(=O)N[C@@H](Cc1ccccc1)C(=O)N[C@H](C(=O)N1CCC[C@H]1C(=O)NCC(=O)N[C@@H](Cc1ccc(O)cc1)C(=O)O)[C@@H](C)O", "1.31 µM"],
  ["CC[C@H](C)[C@H](NC(=O)[C@@H]1CCCN1C(=O)[C@@H](N)CCCCN)C(=O)N[C@H](C(=O)N[C@@H](CCC(N)=O)C(=O)N[C@@H](Cc1ccc(O)cc1)C(=O)N[C@@H](CC(=O)O)C(=O)N[C@@H](CC(N)=O)C(=O)N[C@@H](Cc1ccccc1)C(=O)O)C(C)C", "> 30 µM"],
  ["CC[C@H](C)[C@H](NC(=O)[C@H](C)NC(=O)[C@H](CC(C)C)NC(=O)[C@H](CCC(N)=O)NC(=O)[C@@H](NC(=O)[C@H](CCC(=O)O)NC(=O)[C@H](CC(C)C)NC(=O)[C@@H]1CCCN1C(=O)[C@@H](N)CCSC)[C@@H](C)O)C(=O)O", "1.15 µM"],
  ["CC(C)C[C@H](NC(=O)[C@H](C)NC(=O)[C@@H](NC(=O)[C@@H](NC(=O)[C@H](CCCNC(=N)N)NC(=O)[C@@H]1CCCN1C(=O)[C@H](C)N)[C@@H](C)O)C(C)C)C(=O)N[C@H](C(=O)N[C@@H](C)C(=O)O)[C@@H](C)O", "> 30 µM"],
  ["CC(C)C[C@H](NC(=O)[C@H](Cc1ccccc1)NC(=O)[C@H](CCCCN)NC(=O)[C@@H]1CCCN1C(=O)CNC(=O)[C@@H]1CCCN1C(=O)[C@@H](N)CC(C)C)C(=O)N[C@@H](CCC(N)=O)C(=O)N[C@@H](Cc1ccc(O)cc1)C(=O)O", "> 30 µM"]
]}

// moving on: another record for IC50
response.value for `CC(C)C[C@H](NC(=O)[C@H](C)NC(=O)[C@@H](NC(=O)[C@H](CC(C)C)NC(=O)[C@H](C)NC(=O)[C@@H](NC(=O)[C@@H](NC(=O)[C@H](CCCNC(=N)N)NC(=O)[C@@H]1CCCN1C(=O)[C@H](C)N)[C@@H](C)O)C(C)C)[C@@H](C)O)C(=O)O` (field: IC50) = > 30 µM
